- System: ApoB
- Assay info: Non-human primate study, serum ApoB and LDL-C (ApoB conjugates)
- Format: in vivo, cynomolgus monkeys
- Assay context: Example 7; single i.v. dose; FIG. 16
- Source text: The primary objective for this study is to investigate selected lipid markers over 7 weeks after a single slow bolus injection of anti-PCSK9 and anti-ApoB LNA conjugated to GalNac cluster (Conj2a) to cynomolgus monkeys and assess the potential toxicity of compounds in monkey. […] The dose formulations will be administered once on Day 1. […] Clinical observations and body weight and food intake (per group) will be recorded prior to and during the study. […]
Property name: pharmacology (serum ApoB and LDL-C)

>  <Substance>
SEQ ID NO 32: GsTstsgsascsascstsgsTsC, 2PO-DNA (5′ca3′), cholesterol; ApoB (CAGTTGACACTGTC; listed as DNA, chemistry not fully specified)

>  <Reported measurement>
effective

$$$$
>  <Substance>
SEQ ID NO 17: GsTstsgsascsascstsgsTsC, GalNAc cluster Conj2a; ApoB (GTTGACACTGTC; listed as DNA, chemistry not fully specified)

>  <Reported measurement>
effective

$$$$
